Item-by-item account of IC50
systemUnderTest: HDAC6 (Homo sapiens)
Sequence (Q9UBN7 whole entry): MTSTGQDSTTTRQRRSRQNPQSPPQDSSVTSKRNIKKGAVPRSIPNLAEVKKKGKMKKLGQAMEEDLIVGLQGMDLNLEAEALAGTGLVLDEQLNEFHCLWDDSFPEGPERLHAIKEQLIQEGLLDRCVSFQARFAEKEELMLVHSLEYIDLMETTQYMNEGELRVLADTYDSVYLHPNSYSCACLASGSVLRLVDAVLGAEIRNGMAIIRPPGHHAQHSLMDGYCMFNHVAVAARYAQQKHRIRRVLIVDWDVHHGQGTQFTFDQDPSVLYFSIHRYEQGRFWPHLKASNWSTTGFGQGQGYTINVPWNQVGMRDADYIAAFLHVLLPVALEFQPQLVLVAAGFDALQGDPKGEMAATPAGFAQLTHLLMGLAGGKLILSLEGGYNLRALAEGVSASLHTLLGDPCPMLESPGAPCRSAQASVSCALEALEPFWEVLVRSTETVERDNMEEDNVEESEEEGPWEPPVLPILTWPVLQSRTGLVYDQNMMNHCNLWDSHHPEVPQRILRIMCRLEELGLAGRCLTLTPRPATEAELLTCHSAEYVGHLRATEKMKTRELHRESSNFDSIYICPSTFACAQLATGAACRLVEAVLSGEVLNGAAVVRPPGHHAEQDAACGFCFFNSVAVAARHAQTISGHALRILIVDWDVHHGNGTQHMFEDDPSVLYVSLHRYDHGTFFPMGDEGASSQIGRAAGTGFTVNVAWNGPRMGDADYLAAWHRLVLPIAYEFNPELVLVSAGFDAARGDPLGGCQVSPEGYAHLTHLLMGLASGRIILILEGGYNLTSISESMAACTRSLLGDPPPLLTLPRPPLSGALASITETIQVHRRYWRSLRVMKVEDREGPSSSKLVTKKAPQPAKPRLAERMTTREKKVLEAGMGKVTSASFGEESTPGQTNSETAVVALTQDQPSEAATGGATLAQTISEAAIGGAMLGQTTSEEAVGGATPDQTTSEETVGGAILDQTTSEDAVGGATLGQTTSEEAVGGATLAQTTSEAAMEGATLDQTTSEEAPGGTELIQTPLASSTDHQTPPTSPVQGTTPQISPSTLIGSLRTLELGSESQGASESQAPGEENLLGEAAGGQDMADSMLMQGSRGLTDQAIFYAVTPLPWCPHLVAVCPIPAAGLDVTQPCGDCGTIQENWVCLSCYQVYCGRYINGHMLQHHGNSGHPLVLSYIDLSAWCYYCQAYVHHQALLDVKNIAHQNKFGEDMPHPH
assayNotes: HDAC biochemical assay of P5-P12 (Table P1)
Parameters: The recombinant, full-length HDAC protein (BPS Biosciences) was incubated; purchased BPS Biosciences
experimentalParameters: 200 μM TCEP
# output: bare number, implied unit nM

# example entries with known answers
Query string: Name the recorded IC50 for CC(C)[C@@H]1NC(=O)[C@]2(C)CSC(=N2)c2ccnc(c2)CNC(=O)C[C@@H](/C=C/CCS)NC1=O [Compound P12, Peptide Isostere Pyridyl “OUT” Thiol] .
Result string: 2850

Query string: Another: CC(C)[C@@H]1NC(=O)[C@]2(C)CSC(=N2)c2ccnc(c2)CNC(=O)C[C@@H](/C=C/CCS)OC1=O [Compound P8, Depsipeptide Pyridyl “OUT” Thiol]
Result string: 35.2

Could you now consider this next compound?
Query string: Name the recorded IC50 for CC(C)[C@@H]1NC(=O)[C@]2(C)CSC(=N2)c2cccc(n2)CNC(=O)C[C@@H](/C=C/CCS)OC1=O [Compound P6, Depsipeptide Pyridyl “IN” Thiol] .
Result string: 48.5

Where do these numbers come from? They come from patent US10676504B2.
